Origin of values: patent US20190202925A1

Readings of pIC50 for the listed binders
Target: T1, soluble human TNFR2 (human, UniProt P20333 23-257)
T1 construct: also called soluble TNFR2
T1 sequence (looked up): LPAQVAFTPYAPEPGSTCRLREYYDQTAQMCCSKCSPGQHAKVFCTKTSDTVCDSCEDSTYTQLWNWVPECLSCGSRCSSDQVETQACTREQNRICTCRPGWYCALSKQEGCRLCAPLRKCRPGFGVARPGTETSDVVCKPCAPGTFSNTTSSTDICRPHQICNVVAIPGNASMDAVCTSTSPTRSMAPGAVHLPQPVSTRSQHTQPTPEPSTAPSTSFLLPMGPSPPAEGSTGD
Test: competition ELISA: plate-bound soluble human TNFR2, competitor biotinylated TNFα, streptavidin-HRP, A450
Method: Soluble human TNFR2 (Sino Biological, 10417-H08H) or cynomolgus TNFR2 (Sino Biological, 90102-C08H) was coated on Nunc-Immuno™ plates at 0.1 μg/ml, 0.5 ug/ml, 1 μg/ml, and 5 μg/ml. […] Plates were developed using TMB and stopped with 3 M HCl.
pIC50: −log10 of the molar value.
experimental.endpoint: pIC50

# binder, readout.number
rows = [
    ("chimeric SBT-004 (antibody, V domains shown, VH fused to a human IgG1 Fc domain; also called chSBT-004) VH: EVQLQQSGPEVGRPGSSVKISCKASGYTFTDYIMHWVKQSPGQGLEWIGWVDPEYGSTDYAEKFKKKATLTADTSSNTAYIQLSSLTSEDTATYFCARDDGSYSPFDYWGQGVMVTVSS VL: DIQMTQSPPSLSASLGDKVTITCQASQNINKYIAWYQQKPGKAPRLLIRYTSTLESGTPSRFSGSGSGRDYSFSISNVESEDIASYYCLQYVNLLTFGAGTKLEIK", 7.71),
    ("chimeric SBT-004b (antibody, human IgG1, V domains shown, Same heavy chain as chSBT-004 (human IgG1 Fc domain); also called chSBT-004b) VH: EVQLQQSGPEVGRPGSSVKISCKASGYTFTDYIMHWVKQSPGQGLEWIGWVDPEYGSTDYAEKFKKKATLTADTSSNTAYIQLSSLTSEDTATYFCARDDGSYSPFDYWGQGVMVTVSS VL: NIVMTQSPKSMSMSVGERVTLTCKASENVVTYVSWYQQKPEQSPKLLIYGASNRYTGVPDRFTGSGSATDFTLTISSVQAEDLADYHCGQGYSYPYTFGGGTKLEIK", 7.89),
    ("chimeric SBT-002 (antibody, V domains shown, also called chSBT-002) VH: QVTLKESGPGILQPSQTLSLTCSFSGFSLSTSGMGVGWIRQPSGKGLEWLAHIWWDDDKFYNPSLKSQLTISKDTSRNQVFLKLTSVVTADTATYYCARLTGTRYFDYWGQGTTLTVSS VL: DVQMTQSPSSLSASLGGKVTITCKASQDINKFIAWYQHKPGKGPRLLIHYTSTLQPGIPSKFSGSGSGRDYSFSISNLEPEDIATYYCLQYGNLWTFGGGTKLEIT", 7.78),
    ("SBT-002 (antibody, V domains shown, Parental mouse antibody; also called mouse SBT-002) VH: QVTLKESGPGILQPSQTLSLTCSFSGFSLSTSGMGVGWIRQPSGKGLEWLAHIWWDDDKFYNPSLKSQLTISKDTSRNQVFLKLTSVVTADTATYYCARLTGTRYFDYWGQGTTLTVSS VL: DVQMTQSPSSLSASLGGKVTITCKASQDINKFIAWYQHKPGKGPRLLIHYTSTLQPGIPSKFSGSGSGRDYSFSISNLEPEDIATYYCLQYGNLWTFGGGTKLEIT", 7.92),
]
